target: hSWS1-SWSAP1 (human Shu complex) (Homo sapiens); construct: heterodimer co-expressed in High Five insect cells (baculovirus); SWSAP1 with TEV-cleavable N-terminal 6xHis tag (cleaved), SWS1 untagged; with Zinc finger SWIM domain-containing protein 7; test: TNP-ATP displacement fluorescence, one-site competitive fit; conditions: read-out: Kd^ATP; 2 μM protein; 2.5 μM TNP-ATP; no DNA; 37 °C; competitive with TNP-ATP
Sequence (Q6NVH7 whole entry, the tested form may be a part): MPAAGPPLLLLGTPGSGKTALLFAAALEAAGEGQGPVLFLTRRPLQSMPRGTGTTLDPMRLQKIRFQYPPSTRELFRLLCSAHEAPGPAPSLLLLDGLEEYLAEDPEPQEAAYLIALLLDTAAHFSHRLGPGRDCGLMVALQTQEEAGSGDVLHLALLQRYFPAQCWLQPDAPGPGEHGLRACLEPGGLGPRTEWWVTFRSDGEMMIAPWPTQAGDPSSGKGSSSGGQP
Sequence (Q19AV6 whole entry partner, the tested form may be a part): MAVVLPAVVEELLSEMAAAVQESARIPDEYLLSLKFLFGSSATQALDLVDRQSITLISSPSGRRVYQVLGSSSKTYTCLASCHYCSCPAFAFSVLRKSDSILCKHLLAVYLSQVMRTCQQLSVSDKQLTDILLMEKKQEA
READOUT LABEL: pKd
Answers are plain numbers, as −log10 of the molar value.

The reported value for "Nc1ncnc2c1ncn2[C@@H]1O[C@H](COP(=O)(O)OP(=O)(O)OP(=O)(O)O)[C@@H](O)[C@H]1O" in terms of pKd is 4.14
